Values were extracted from paper PMC7506137.

ASSAY REMARKS: Plasma exposure (dried blood spot) after single oral dose
Format: in vivo
STATED CONDITIONS: male, Sprague Dawley, rat, whole blood (dried blood spot), po, 1 mg/kg, oral 1 mg/kg, 6 h, FU 0.053, read-out: Unbound Concentration, Mean
OBSERVED PROPERTY: concentration at 6 h (nM)
Answer in nM, number only, no unit symbol.

GET /value?item= O=c1c2nnc(C3(C4CC4)CC3)n2c2c(n1CC1CC1)CCCC2 [BTTQ] &field=concentration at 6 h returns 41.3

###

ASSAY REMARKS: Plasma exposure (dried blood spot) after single oral dose
Format: in vivo
STATED CONDITIONS: male, Sprague Dawley, rat, whole blood (dried blood spot), po, 3 mg/kg, oral 3 mg/kg, 1 h, FU 0.053, read-out: Unbound Concentration, Mean
OBSERVED PROPERTY: concentration at 1 h (nM)
Answer in nM, number only, no unit symbol.

GET /value?item= "O=c1c2nnc(C3(C4CC4)CC3)n2c2c(n1CC1CC1)CCCC2" &field=concentration at 1 h returns 197

###

ASSAY REMARKS: Plasma exposure (dried blood spot) after single oral dose
Assay type: in vivo
STATED CONDITIONS: male, Sprague Dawley, rat, whole blood (dried blood spot), po, 1 mg/kg, oral 1 mg/kg, 4 h, dried blood spot, read-out: Concentration, individual animals
OBSERVED PROPERTY: concentration at 4 h

GET /value?item= O=c1c2nnc(C3(C4CC4)CC3)n2c2c(n1CC1CC1)CCCC2 [BTTQ] &field=concentration at 4 h returns 900 nM

###

ASSAY REMARKS: Plasma exposure (dried blood spot) after single oral dose
Type: in vivo
STATED CONDITIONS: male, Sprague Dawley, rat, whole blood (dried blood spot), po, 3 mg/kg, oral 3 mg/kg, 2 h, FU 0.053, read-out: Unbound Concentration, Mean
OBSERVED PROPERTY: concentration at 2 h (nM)
Answer in nM, number only, no unit symbol.

GET /value?item= "O=c1c2nnc(C3(C4CC4)CC3)n2c2c(n1CC1CC1)CCCC2" &field=concentration at 2 h returns 195

###

ASSAY REMARKS: Plasma exposure (dried blood spot) after single oral dose
Assay type: in vivo
STATED CONDITIONS: male, Sprague Dawley, rat, whole blood (dried blood spot), po, 1 mg/kg, oral 1 mg/kg, 2 h, FU 0.053, read-out: Unbound Concentration, Mean
OBSERVED PROPERTY: concentration at 2 h (nM)
Answer in nM, number only, no unit symbol.

GET /value?item= "O=c1c2nnc(C3(C4CC4)CC3)n2c2c(n1CC1CC1)CCCC2" &field=concentration at 2 h returns 87.6

###

ASSAY REMARKS: Plasma exposure (dried blood spot) after single oral dose
Format: in vivo
STATED CONDITIONS: male, Sprague Dawley, rat, whole blood (dried blood spot), po, 3 mg/kg, oral 3 mg/kg, 24 h, FU 0.053, read-out: Unbound Concentration, Mean
Protocol: Male Sprague Dawley rats at 6 to 7 weeks were dosed orally by p.o. gavage with different doses of BTTQ formulated in 1% hydroxyethlycellulose (Dow Corning, Midland, MI, United States) (w/v), 0.25% polysorbate 80 (Sigma-Aldrich, St. Louis, MO, United States) (v/v), and 0.05% antifoam (v/v; Dow Corning, Midland, MI, United States) in purified water. […]
OBSERVED PROPERTY: concentration at 24 h (nM)
Answer in nM, number only, no unit symbol.

GET /value?item= O=c1c2nnc(C3(C4CC4)CC3)n2c2c(n1CC1CC1)CCCC2 [BTTQ] &field=concentration at 24 h returns 5
